Numbers sourced from patent US20170267762A1.

Target: T1, human PD-1 on cells (293T cells transfected with human PD-1) (human, UniProt Q15116 25-288)
T1 construct: whole, on cells; Also used as the target for the functional rows, where PD-1 stands on human T cells
T1 sequence (Q15116 25-288): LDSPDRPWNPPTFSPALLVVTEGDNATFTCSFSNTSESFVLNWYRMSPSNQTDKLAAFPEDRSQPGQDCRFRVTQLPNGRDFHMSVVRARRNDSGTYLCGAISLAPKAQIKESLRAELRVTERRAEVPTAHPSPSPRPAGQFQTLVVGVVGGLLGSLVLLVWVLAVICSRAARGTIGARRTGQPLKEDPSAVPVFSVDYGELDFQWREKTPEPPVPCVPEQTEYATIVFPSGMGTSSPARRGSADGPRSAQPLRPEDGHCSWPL
Experiment: FACS blockage on hPD-1-293T cells, competitor biotin PD-L1
Description: Various concentrations of the testing hybridoma antibodies were added to the cell suspension and incubated at 4° C. for 60 minutes in 96 well plates. […] Plates were washed 3 times, and mouse anti-biotin PE antibody (Biolgend, cat# 409004) was added. Flow cytometric analyses were performed using a FACS Array. The purified hybridoma antibodies were characterized further based on ELISA and FACS analyses.
Each entry below carries its recorded IC50.
Dear colleague, please return just the value in µg/mL, with no unit written.

Binder: 13F1 murine anti-PD-1 antibody (antibody, V domains shown, Purified hybridoma antibody; also called 13F1-mIgG1) VH: DVQLQESGPGLVKPSQSLSLTCTVTGYSITSDYAWNWIRQFPGNQLEWMAYISYSGYTSYNPSLKSRISITRDTSKNQFFLQLNSVTTEDTATYYCARSLDYDYGTMDYWGQGTSVTVSS VL: QIVLSQSPAILSASPGEKVTMTCRANSSVSSMHWYQQKPGSSPEPWIYAISNLAFGVPTRFSGSGSGTSYSLTISRVEAEDAATYFCQQWSSRPPTFGGGTKLEIKR
IC50 [µg/mL]: 0.0199

Turning to the following binder.
Query :: Given the binder 15H5 murine anti-PD-1 antibody (antibody, V domains shown, Purified hybridoma antibody; also called 15H5-mIgG1) VH: EVKLVESGGGLVKPGGSLKLSCAASGFAFRSYDMSWVRQTPEKILEWVATISGGGSYTYYQDSVKGRFTISRDNARNTLYLQMSSLRSEDTALYYCASPYGPYFDYWGQGTTLTVSS VL: DIQMNQSPSSLSASLGDTITITCHASQSINVWLSWYQQKPGNIPKLLIYRASNLHTGVPSRFSGSGSGTGFTLTISSLQPDDIATYYCQQGQSYPWTFGGGTKLEIKR , what is its reported IC50?
Result :: 0.0356
